# Tested on: Wolbachia pipientis
# Test method notes: Anti-Wolbachia Cell-Based Screen
# Format: functional
# Parameters: scale not given: in the data most compounds retested in dose-response had high values
# Test parameters: 5 µM
Screen size: about 48,000 compounds; about 13,000 (27%) showed an effect of 50% or more. The list shows a part of the results.
Items are presented alongside their recorded Percent Effect.
Reported property: Percent Effect (%)

> print(dat)
                                    molecule  measured
 1  CN(C)C(=O)CO[C@H]1CN(Cc2ccc(F)cc2)[C@@H]2CCCO[C@H]12.O=C(O)C(F)(F)F    -2.214
 2      NC(=O)C1(CNCc2csc(-c3cccs3)n2)CCOCC1   -0.8866
 3  CCOCCCNC(=O)C1(C)CCC(=O)N1c1ccccc1F (stereo not given)     110.1
 4  CCOC(=O)c1ccc(Nc2ccc(OC)c(N3CCCC3=O)c2)nc1   -0.2575
 5      COc1ccccc1C1(C(=O)NCCN2CCOCC2)CCOCC1     3.862
 6  CCOCCCNC(=O)C1(C)CCC(=O)N1c1ccccc1OC (stereo not given)     128.9
 7  CN(C)CCO[C@H]1CN(CC2CC2)[C@@H]2CCCO[C@H]12.O=C(O)C(F)(F)F.O=C(O)C(F)(F)F       109
 8  CCOCCCNC(=O)C1(C)CCC(=O)N1c1cc(OC)ccc1OC (stereo not given)     128.4
 9  COc1cccc(C(=O)N2CCC3(CCC(=O)N(C(C)C)C3)CC2)c1C     -8.72
10  CCOCC1CC2(CCN(C(=O)c3ccccc3F)CC2)CO1 (stereo not given)    -17.98
